Provide the recorded Ki for the entries that follow.
Target: horse liver ADH1E S48T/F93A (Equus caballus, UniProt P00327, F94A/S49T)
Sequence (P00327 whole entry S49T/F94A): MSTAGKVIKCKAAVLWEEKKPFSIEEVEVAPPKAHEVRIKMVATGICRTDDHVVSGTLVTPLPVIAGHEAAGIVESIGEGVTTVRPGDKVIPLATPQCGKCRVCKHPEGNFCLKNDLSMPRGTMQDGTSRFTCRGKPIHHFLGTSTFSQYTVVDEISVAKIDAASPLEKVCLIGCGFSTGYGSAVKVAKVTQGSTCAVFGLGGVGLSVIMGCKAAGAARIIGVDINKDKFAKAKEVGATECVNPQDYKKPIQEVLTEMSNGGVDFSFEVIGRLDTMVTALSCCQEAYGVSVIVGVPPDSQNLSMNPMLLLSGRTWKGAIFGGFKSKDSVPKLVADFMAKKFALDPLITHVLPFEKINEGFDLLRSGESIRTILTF
Experiment: Inhibition of ethanol oxidation, S48T/F93A enzyme
Assay type: biochemical
Details: competitive against ethanol, pH 8.0, 25 °C
Reply with just the number (in µM).

Input: // output Ki; input `c1cn[nH]c1` ; system horse liver ADH1E S48T/F93A (Equus caballus, UniProt P00327, F94A/S49T)
Output: 8.1

Input: // output Ki; input `OCC(F)(F)C(F)(F)C(F)(F)F` ; system horse liver ADH1E S48T/F93A (Equus caballus, UniProt P00327, F94A/S49T)
Output: 53

###

Target: horse liver ADH1E S48A (Equus caballus, UniProt P00327, S49A)
Sequence (P00327 whole entry S49A): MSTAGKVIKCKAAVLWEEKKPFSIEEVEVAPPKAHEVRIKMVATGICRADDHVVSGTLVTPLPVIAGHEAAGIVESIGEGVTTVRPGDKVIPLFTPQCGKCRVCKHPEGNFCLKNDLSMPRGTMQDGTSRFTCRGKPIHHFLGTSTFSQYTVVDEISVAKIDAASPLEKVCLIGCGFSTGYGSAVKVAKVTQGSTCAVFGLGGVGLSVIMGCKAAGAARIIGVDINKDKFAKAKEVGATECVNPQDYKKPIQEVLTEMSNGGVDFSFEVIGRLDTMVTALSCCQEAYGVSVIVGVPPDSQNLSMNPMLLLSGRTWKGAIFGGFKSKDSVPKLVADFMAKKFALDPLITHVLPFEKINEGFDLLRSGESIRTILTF
Experiment: Steady-state kinetics, S48A enzyme
Details: read-out: Inhibition constant for coenzyme (Kia NAD+, Kiq NADH); pH 8.0, 25 °C
Measurement kind: Ki

Input: Answer with the recorded Ki of `NC(=O)c1ccc[n+]([C@@H]2O[C@H](COP(=O)([O-])OP(=O)(O)OC[C@H]3O[C@@H](n4cnc5c(N)ncnc54)[C@H](O)[C@@H]3O)[C@@H](O)[C@H]2O)c1` only.
Output: 110 µM

Input: Answer with the recorded Ki of `NC(=O)C1=CN([C@@H]2O[C@H](COP(=O)(O)OP(=O)(O)OC[C@H]3O[C@@H](n4cnc5c(N)ncnc54)[C@H](O)[C@@H]3O)[C@@H](O)[C@H]2O)C=CC1` only.
Output: 21 µM

###

Target: horse liver ADH1E S48T/F93A (Equus caballus, UniProt P00327, F94A/S49T)
Test: Steady-state kinetics, S48T/F93A enzyme
Type: biochemical
Conditions: read-out: Inhibition constant for coenzyme (Kia NAD+, Kiq NADH); pH 8.0, 25 °C
Measurement kind: Ki (µM)
Reply with just the number (in µM).

Input: Answer with the recorded Ki of NC(=O)c1ccc[n+]([C@@H]2O[C@H](COP(=O)([O-])OP(=O)(O)OC[C@H]3O[C@@H](n4cnc5c(N)ncnc54)[C@H](O)[C@@H]3O)[C@@H](O)[C@H]2O)c1 [NAD^+] only.
Output: 33

Input: Answer with the recorded Ki of NC(=O)C1=CN([C@@H]2O[C@H](COP(=O)(O)OP(=O)(O)OC[C@H]3O[C@@H](n4cnc5c(N)ncnc54)[C@H](O)[C@@H]3O)[C@@H](O)[C@H]2O)C=CC1 [NADH] only.
Output: 0.054

###

Provide the recorded pKi for the entries that follow.
Molecular target: horse liver ADH1E F93A (Equus caballus, UniProt P00327, F94A)
Experiment: Inhibition of ethanol oxidation, F93A enzyme
Assay type: biochemical
Here pKi is given on a logarithmic scale as minus log10 of the concentration in mol/L.

Input: Answer with the recorded pKi of `OCC(F)(F)F` only.
Output: 4.28

Input: Answer with the recorded pKi of `OCc1c(F)c(F)c(F)c(F)c1F` only.
Output: 4.29

###

Target: horse liver ADH1E S48T (Equus caballus, UniProt P00327, S49T)
Sequence (P00327 whole entry S49T): as the sequence (P00327 whole entry S49A) above, with A49T counted along it
Assay: Steady-state kinetics, S48T enzyme
Format: biochemical
Conditions: read-out: Inhibition constant for coenzyme (Kia NAD+, Kiq NADH); pH 8.0, 25 °C
Measurement kind: Ki (µM)
Reply with just the number (in µM).

Input: Answer with the recorded Ki of `NC(=O)c1ccc[n+]([C@@H]2O[C@H](COP(=O)([O-])OP(=O)(O)OC[C@H]3O[C@@H](n4cnc5c(N)ncnc54)[C@H](O)[C@@H]3O)[C@@H](O)[C@H]2O)c1` only.
Output: 15

Input: Answer with the recorded Ki of `NC(=O)C1=CN([C@@H]2O[C@H](COP(=O)(O)OP(=O)(O)OC[C@H]3O[C@@H](n4cnc5c(N)ncnc54)[C@H](O)[C@@H]3O)[C@@H](O)[C@H]2O)C=CC1` only.
Output: 0.57

###

Molecular target: horse liver ADH1E F93A (Equus caballus, UniProt P00327, F94A)
Assay: Steady-state kinetics, F93A enzyme
Format: biochemical
Conditions: read-out: Inhibition constant for coenzyme (Kia NAD+, Kiq NADH); pH 8.0, 25 °C
Measurement kind: pKi
Here pKi is given on a logarithmic scale as minus log10 of the concentration in mol/L.

Input: Answer with the recorded pKi of `NC(=O)C1=CN([C@@H]2O[C@H](COP(=O)(O)OP(=O)(O)OC[C@H]3O[C@@H](n4cnc5c(N)ncnc54)[C@H](O)[C@@H]3O)[C@@H](O)[C@H]2O)C=CC1` only.
Output: 7.44

Input: Answer with the recorded pKi of `NC(=O)c1ccc[n+]([C@@H]2O[C@H](COP(=O)([O-])OP(=O)(O)OC[C@H]3O[C@@H](n4cnc5c(N)ncnc54)[C@H](O)[C@@H]3O)[C@@H](O)[C@H]2O)c1` only.
Output: 4.36

###

Molecular target: horse liver ADH1E S48T/F93A (Equus caballus, UniProt P00327, F94A/S49T)
Assay: Transient
Type: biochemical
Details: pH 8.0, 25 °C; 2 mM NAD+ (oxidation) or stoichiometric NADH (reduction)
Measurement kind: k max (transient oxidation or reduction) (s⁻¹)
Reply with just the number (in s⁻¹).

Input: Answer with the recorded k max (transient oxidation or reduction) of CCC(C)=O [2-Butanone, 2-butanone] only.
Output: 0.14

Input: Answer with the recorded k max (transient oxidation or reduction) of CC=O [acetaldehyde] only.
Output: 58

Input: Answer with the recorded k max (transient oxidation or reduction) of OCc1ccccc1 [Benzyl alcohol, benzyl alcohol] only.
Output: 78

Input: Answer with the recorded k max (transient oxidation or reduction) of O=Cc1ccccc1 [Benzaldehyde, benzaldehyde] only.
Output: 0.67

Input: Answer with the recorded k max (transient oxidation or reduction) of CC[C@H](C)O [(S)-2-Butanol, (S)-2-butanol] only.
Output: 16

Input: Answer with the recorded k max (transient oxidation or reduction) of CC[C@@H](C)O [(R)-2-Butanol, (R)-2-butanol] only.
Output: 130

Input: Answer with the recorded k max (transient oxidation or reduction) of CCO [ethanol] only.
Output: 72
